From: patent US20240208992A1

Give measured EC50 for each item. Keep answers brief.
target: human F508del-CFTR (Homo sapiens, UniProt P13569, DEL508-508); test: F508del-CFTR cell surface expression (corrector activity), DiscoveRx ß-galactosidase complementation chemiluminescence assay in recombinant U2OS cell line; conditions: EC50, F508del-CFTR cell surface expression, U2OS cells, 16h compound incubation; geomean of several measurements
Sequence (P13569 with tags, fused parts or gaps DEL508-508): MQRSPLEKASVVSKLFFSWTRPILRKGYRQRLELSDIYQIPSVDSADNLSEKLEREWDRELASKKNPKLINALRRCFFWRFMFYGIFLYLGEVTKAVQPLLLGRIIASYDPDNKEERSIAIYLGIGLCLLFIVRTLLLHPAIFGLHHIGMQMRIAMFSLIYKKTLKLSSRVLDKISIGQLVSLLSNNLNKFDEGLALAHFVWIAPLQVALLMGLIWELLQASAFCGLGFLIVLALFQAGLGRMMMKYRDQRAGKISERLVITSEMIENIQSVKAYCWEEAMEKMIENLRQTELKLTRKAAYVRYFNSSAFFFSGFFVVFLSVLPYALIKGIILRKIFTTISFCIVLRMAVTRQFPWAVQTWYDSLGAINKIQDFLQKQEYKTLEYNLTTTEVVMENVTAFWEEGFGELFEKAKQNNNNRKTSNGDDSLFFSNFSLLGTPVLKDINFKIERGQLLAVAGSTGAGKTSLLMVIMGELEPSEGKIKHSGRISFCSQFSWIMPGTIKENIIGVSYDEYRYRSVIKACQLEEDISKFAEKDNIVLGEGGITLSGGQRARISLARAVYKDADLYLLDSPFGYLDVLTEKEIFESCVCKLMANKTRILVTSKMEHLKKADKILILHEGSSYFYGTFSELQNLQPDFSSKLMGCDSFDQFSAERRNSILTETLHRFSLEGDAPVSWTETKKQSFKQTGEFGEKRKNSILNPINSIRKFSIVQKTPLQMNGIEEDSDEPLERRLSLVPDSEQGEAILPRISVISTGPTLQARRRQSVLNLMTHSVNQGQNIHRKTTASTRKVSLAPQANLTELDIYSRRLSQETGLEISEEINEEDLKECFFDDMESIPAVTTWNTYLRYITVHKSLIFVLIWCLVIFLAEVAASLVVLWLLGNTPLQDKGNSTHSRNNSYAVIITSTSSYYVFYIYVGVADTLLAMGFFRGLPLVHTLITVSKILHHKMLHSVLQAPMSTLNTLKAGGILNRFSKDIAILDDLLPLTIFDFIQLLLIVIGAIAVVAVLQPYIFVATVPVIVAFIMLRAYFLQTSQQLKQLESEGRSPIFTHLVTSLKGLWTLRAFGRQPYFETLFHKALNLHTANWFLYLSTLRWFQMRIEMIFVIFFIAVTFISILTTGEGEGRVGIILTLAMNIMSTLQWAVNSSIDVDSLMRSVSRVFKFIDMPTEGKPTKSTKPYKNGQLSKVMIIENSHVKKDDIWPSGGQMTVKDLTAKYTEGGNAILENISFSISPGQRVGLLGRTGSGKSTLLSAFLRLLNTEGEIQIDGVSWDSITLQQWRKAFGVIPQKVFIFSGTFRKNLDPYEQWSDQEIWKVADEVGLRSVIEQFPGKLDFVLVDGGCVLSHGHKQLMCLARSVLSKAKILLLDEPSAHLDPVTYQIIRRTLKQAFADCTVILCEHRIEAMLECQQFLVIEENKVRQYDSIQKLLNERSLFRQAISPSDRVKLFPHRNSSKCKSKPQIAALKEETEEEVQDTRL
One number for each entry, in nM.

CCOCC[C@@H]1C(=O)N[C@H](Cc2ccccc2)COc2ccc3ncc(F)cc3c2C(=O)N[C@H](C(=O)NCCc2cc(OC)no2)CC(=O)N(C)[C@@H](CC(C)C)C(=O)N1C
136
COc1cc(CCNC(=O)[C@@H]2CC(=O)N(C)[C@@H](CC(C)C)C(=O)N(C)[C@H](CC3CCC3)C(=O)N[C@H](Cc3ccccc3)COc3cc(C)nc(OC)c3C(=O)N2)on1
53

Hey, quick one: what's EC50 for each of these?
1. COc1noc(CCNC(=O)[C@@H]2CC(=O)N(C)[C@@H](CC(C)C)C(=O)N3CCCC[C@@H]3C(=O)N[C@H](Cc3ccccc3)COc3cnc4ccc(F)cc4c3C(=O)N2)n1
2. COc1nc(C)cc2c1C(=O)N[C@H](C(=O)NCCn1nc3ccccc3n1)CC(=O)N(C)[C@@H](CC(C)C)C(=O)N(C)[C@H](Cc1nc(C(F)(F)F)no1)C(=O)N[C@H](Cc1ccccc1)CO2
3. CC(C)C[C@H]1C(=O)N(C)[C@H](Cc2cc(C(C)(C)C)no2)C(=O)N[C@H](Cc2ccccc2)COc2cnc3ccc(F)cc3c2C(=O)N[C@H](C(=O)NCCc2noc(C3CC3)n2)CC(=O)N1C
4. COc1nc(C)cc2c1C(=O)N[C@H](C(=O)NCCc1noc(C3CC3)n1)CC(=O)N(C)[C@@H](CC(C)C)C(=O)N(C)[C@H](Cc1nc(C(F)(F)F)no1)C(=O)N[C@H](Cc1ccccc1)CO2
5. COc1noc(CCNC(=O)[C@@H]2CC(=O)N(C)[C@@H](CC(C)C)C(=O)N(C)[C@H](CC(F)F)C(=O)N[C@H](Cc3ccccc3)COc3ccc4ncc(F)cc4c3C(=O)N2)c1F
6. COc1cc(CCNC(=O)[C@@H]2CC(=O)N(C)[C@@H](CC(C)C)C(=O)N(C)[C@H](CC(C)(C)C)C(=O)N[C@H](Cc3ccccc3)COc3cc(C)nc(OC)c3C(=O)N2)on1

[142, 51, 15, 49, 92, 27]

Hey, quick one: what's EC50 for each of these?
1. CCOCC[C@@H]1C(=O)N[C@H](Cc2ccccc2)COc2ccc3ncc(F)cc3c2C(=O)N[C@H](C(=O)NCCn2nnc(C3CC3)n2)CC(=O)N(C)[C@@H](CC(C)C)C(=O)N1C
2. COc1cc(CCNC(=O)[C@@H]2CC(=O)N(C)[C@@H](CC(C)C)C(=O)N(C)C3(CC3)C(=O)N[C@H](Cc3ccccc3)COc3ccc4cnc(C)cc4c3C(=O)N2)on1
3. COc1cc(C[C@@H]2C(=O)N[C@H](Cc3ccccc3)COc3ccc4ncc(F)cc4c3C(=O)N[C@H](C(=O)NCCc3noc(C4CC4)n3)CC(=O)N(C)[C@@H](CC(C)C)C(=O)N2C)on1
4. CC(C)C[C@H]1C(=O)N(C)[C@H](Cn2cc(-c3ccc(F)cn3)nn2)C(=O)N[C@H](Cc2ccccc2)COc2cnc3ccc(F)cc3c2C(=O)N[C@H](C(=O)NCCc2noc(C3CC3)n2)CC(=O)N1C
5. COc1noc(CCNC(=O)[C@@H]2CC(=O)N(C)[C@@H](CC(C)C)C(=O)N(C)C3(CC(F)(F)C3)C(=O)N[C@H](Cc3ccccc3)COc3ccc4ncc(F)cc4c3C(=O)N2)c1F

1: 188; 2: 736; 3: 63; 4: 78; 5: 142

###

target: human F508del-CFTR (Homo sapiens, UniProt P13569, DEL508-508); experiment: F508del-CFTR cell surface expression (corrector activity), DiscoveRx ß-galactosidase complementation chemiluminescence assay in recombinant U2OS cell line; conditions: EC50, F508del-CFTR cell surface expression, U2OS cell line, 16h compound incubation; geomean values
Give measured pEC50 for each item. Keep answers brief.
Answers are plain numbers, as −log10 of the molar value.

CC(C)C[C@H]1C(=O)N2CCOC[C@@H]2C(=O)N[C@H](Cc2ccccc2)COc2ccc3ccccc3c2C(=O)N[C@H](C(=O)NCCc2ccc(C#N)cc2)CC(=O)N1C [Example 40]
6.05
CN1C(=O)C[C@@H](C(=O)NCCc2ccc3c(c2)OCO3)NC(=O)c2c(ccc3ccccc23)OC[C@@H](Cc2ccccc2)NC(=O)CN(CC[C@@H]2CCCCO2)C(=O)[C@@H]1CC1CC1 [Example 358]
6.39
CN1C(=O)C[C@@H](C(=O)NCCc2ccc3c(c2)OCO3)NC(=O)c2c(ccc3ccccc23)OC[C@@H](Cc2ccccc2)NC(=O)CN(CC[C@H]2CCCCO2)C(=O)[C@@H]1CC1CCCC1 (racemic) [Example 288]
6.83
COc1cccc(CCNC(=O)[C@@H]2CC(=O)N(C)[C@@H](CC(C)C)C(=O)N(CCC3CCCCC3)CC(=O)N[C@H](Cc3ccccc3)COc3cnccc3C(=O)N2)c1 [Example 266]
6.45
COc1cccc2c1C(=O)N[C@H](C(=O)NCCc1ccc3c(c1)OCCO3)CC(=O)N(C)[C@@H](CC(C)C)C(=O)N(CCC1CCCCC1)CC(=O)N[C@H](Cc1ccccc1)CO2 [Example 149]
6.72
CC(C)C[C@H]1C(=O)N(C)CC(=O)N[C@H](Cc2ccccc2)COc2cnc3c(F)cccc3c2C(=O)N[C@H](C(=O)NCCc2ccc3c(c2)OCO3)CC(=O)N1C [Example 349]
6.22
COc1ccc(CCNC(=O)[C@@H]2CC(=O)N(C)[C@@H](CC(C)C)C(=O)N3CCCC[C@@H]3C(=O)N[C@H](Cc3ccccc3)COc3ccc4ncn(C)c4c3C(=O)N2)cc1 (racemic) [Example 25]
6.26
CCc1ccc(CCNC(=O)[C@@H]2CC(=O)N(C)[C@@H](CC(C)C)C(=O)N(C)CC(=O)N[C@H](Cc3ccccc3)COc3ccncc3C(=O)N2)cc1 [Example 252]
6.05
[2H]C([2H])([2H])Oc1cccc(CCNC(=O)[C@@H]2CC(=O)N(C)[C@@H](CC(C)C)C(=O)N(CCC3CCCCC3)CC(=O)N[C@H](Cc3ccccc3)COc3cnc4c(F)cccc4c3C(=O)N2)c1 [Example 384]
7.27

Pending molecule:
For COc1cc2c(cc1OC)C(=O)N[C@H](C(=O)NCCc1ccc3c(c1)OCCC3)CC(=O)N(C)[C@@H](CC(C)C)C(=O)N(C)CC(=O)N[C@H](Cc1ccccc1)CO2 [Example 148] the molecule record lists pEC50 as 6.09

###

target: human F508del-CFTR (Homo sapiens, UniProt P13569, DEL508-508); assay: F508del-CFTR cell surface expression (corrector activity), DiscoveRx ß-galactosidase complementation chemiluminescence assay in recombinant U2OS cell line; conditions: U2OS, in relation to the Emax of the corrector lumacaftor (=100%); U2OS cells, 16h compound incubation; arithmetic mean;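 note: U2OS cells co-expressing ProLink-tagged F508del-CFTR and a membrane-anchored enzyme acceptor, where more surface CFTR restores β-galactosidase activity measured by chemiluminescence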
measurement_label: Emax (%)
Answers are plain numbers, in %.

Look over these answered cases.
Cc1cc2c3c(ccc2cn1)OC[C@@H](Cc1ccccc1)NC(=O)[C@@H](C)N(C)C(=O)[C@H](CC(C)C)N(C)C(=O)C[C@@H](C(=O)NCCc1nc(C2CC2)no1)NC3=O
340
CC(C)C[C@H]1C(=O)N(C)[C@H](Cc2nc(C(F)(F)F)no2)C(=O)N[C@H](Cc2ccccc2)COc2ccc3ncc(F)cc3c2C(=O)N[C@H](C(=O)NCCc2nc(C3CC3)no2)CC(=O)N1C
418
CC(C)C[C@H]1C(=O)N(C)[C@@H](Cc2nc(C(F)(F)F)no2)C(=O)N[C@H](Cc2ccccc2)COc2cnc3ccc(F)cc3c2C(=O)N[C@H](C(=O)NCCc2noc(C3CC3)n2)CC(=O)N1C
280
COc1noc(CCNC(=O)[C@@H]2CC(=O)N(C)[C@@H](CC(C)C)C(=O)N(C)[C@H](Cc3nc(C(F)(F)F)no3)C(=O)N[C@H](Cc3ccccc3)COc3ccnc(OC)c3C(=O)N2)n1
518
CCOCC[C@@H]1C(=O)N[C@H](Cc2ccccc2)COc2ccc3cnc(C)cc3c2C(=O)N[C@H](C(=O)NCCc2cc(OC)no2)CC(=O)N(C)[C@@H](CC(C)C)C(=O)N1C
390

Hey, quick one: what's Emax for each of these?
1. COc1noc(CCNC(=O)[C@@H]2CC(=O)N(C)[C@@H](CC(C)C)C(=O)N(C)C3(CC(F)(F)C3)C(=O)N[C@H](Cc3ccccc3)COc3ccc4ncc(F)cc4c3C(=O)N2)n1
2. CC(C)C[C@H]1C(=O)N(C)[C@H](Cn2cc(-c3ccc(F)cn3)nn2)C(=O)N[C@H](Cc2ccccc2)COc2cnc3ccc(F)cc3c2C(=O)N[C@H](C(=O)NCCc2noc(C3CC3)n2)CC(=O)N1C
3. CC(C)C[C@H]1C(=O)N(C)C2(CC(F)(F)C2)C(=O)N[C@H](Cc2ccccc2)COc2cnc3ccc(F)cc3c2C(=O)N[C@H](C(=O)NCCn2nnc(C3CC3)n2)CC(=O)N1C
4. CC(C)C[C@H]1C(=O)N(C)[C@H](Cc2nc(C(F)(F)F)no2)C(=O)N[C@H](Cc2ccccc2)COc2ccc3ncc(F)cc3c2C(=O)N[C@H](C(=O)NCCCOC(F)F)CC(=O)N1C

396
328
358
336

For "COCCn1cc(CCNC(=O)[C@@H]2CC(=O)N(C)[C@@H](CC(C)C)C(=O)N(C)[C@H](Cc3nc(C(F)(F)F)no3)C(=O)N[C@H](Cc3ccccc3)COc3ccc4ncc(F)cc4c3C(=O)N2)cn1" the molecule record lists Emax as 453
